TESTED_TARGET: T1, O6-AA
T1 chain: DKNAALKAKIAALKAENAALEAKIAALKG
PROTOCOL_SUMMARY: two-hybrid library CCmax;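 also: natural log of median RNA to DNA barcode read ratio; higher means stronger binding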
CONDITION_SET: mean of both orientations
interaction score vs -0.7: at or above is y, below is n.

>  <BINDER>
DENAALEAEIAALEAENAALEAKIAALKG [O14-AA]

>  <LABEL_CLASS>
y

$$$$
>  <BINDER>
DEIAALEAKIAALKAENAALEAENAALEG [O3-AA]

>  <LABEL_CLASS>
n

$$$$
>  <BINDER>
DENAALEAKNAALKAKIAALKAKIAALKG [O2-AA]

>  <LABEL_CLASS>
n

$$$$
>  <BINDER>
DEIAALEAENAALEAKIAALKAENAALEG [4H171-AA]

>  <LABEL_CLASS>
n

$$$$
